Biological target: phosphorylated active hERK2 enzyme (Homo sapiens (Human))
Sequence (P28482 whole entry): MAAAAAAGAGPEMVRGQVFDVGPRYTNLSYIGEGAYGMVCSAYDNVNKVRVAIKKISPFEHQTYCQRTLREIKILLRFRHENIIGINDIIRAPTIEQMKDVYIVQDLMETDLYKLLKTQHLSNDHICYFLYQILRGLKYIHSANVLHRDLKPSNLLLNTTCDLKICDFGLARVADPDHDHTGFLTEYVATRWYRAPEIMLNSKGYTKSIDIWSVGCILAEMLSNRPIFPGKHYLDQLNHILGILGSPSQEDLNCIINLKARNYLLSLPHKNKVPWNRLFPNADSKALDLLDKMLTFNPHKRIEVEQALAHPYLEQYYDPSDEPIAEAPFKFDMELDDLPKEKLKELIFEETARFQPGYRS
Experiment: Active Human ERK2 (hERK2) Activity Assay (IMAP-FP)
Format: biochemical
Conditions: Table 6, 0.5 nM hERK2, 30 μM ATP, 10 point titration, read-out: AERK2 IC50
pIC50: −log10 of the molar value.
Assign class by pIC50: not lower than 8 means Satisfied; lower than 8 means Not satisfied.

IN: pIC50 >= 8 for C[C@@H](NC(=O)Nc1cc2[nH]nc(NC3(C)CCC3)c2cn1)c1ccccc1 [Example 356] ?
OUT: Not satisfied

IN: pIC50 >= 8 for Nc1n[nH]c2cc(NC(=O)NC3COc4ccccc4C3)ncc12 (stereo not shown) [Example 257] ?
OUT: Not satisfied

IN: pIC50 >= 8 for C[C@@H](NC(=O)Nc1cc2[nH]nc(NC3CCOC3)c2cn1)c1ccccc1 (stereo partly shown) [Example 161] ?
OUT: Satisfied

IN: pIC50 >= 8 for Nc1n[nH]c2cc(NC(=O)N[C@H](c3ccccc3)[C@@H]3CCCO3)ncc12 [Example 155] ?
OUT: Not satisfied
